system: T1, TFAM (no MTS) (Homo sapiens, UniProt Q00059 43-246)
T1 sequence: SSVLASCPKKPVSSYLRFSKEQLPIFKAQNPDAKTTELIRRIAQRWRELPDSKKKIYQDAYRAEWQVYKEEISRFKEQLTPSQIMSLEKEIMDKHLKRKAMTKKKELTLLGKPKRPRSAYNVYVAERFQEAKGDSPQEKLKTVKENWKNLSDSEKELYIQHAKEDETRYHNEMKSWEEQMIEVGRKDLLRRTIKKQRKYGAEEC
assay: fluorescence anisotropy; Hill n 2.07±0.07; FP: 25 mM HEPES, 10 mM Mg(OAc)2, 25 mM NaOAc, 75 mM KOAc, pH 7.5, 1 nM DNA, TFAM 0-15 nM diluted on ice (read temperature not stated); AFM oligos: on ice, 2 min
condition.set: protein: recombinant; label: 5' 6-FAM on strand 1; blunt
measured.metric: pKd
Worth noting: pKd values are minus log10 of concentrations stated in mol/L.

Q: Please give the documented pKd of COX1_27 (dsDNA) DNA 1: AAGACATTGGAACACTATACCTATTATTCGGCG DNA 2: CGCCGAATAATAGGTATAGTGTTCCAATGTCTT
Ans: 8.22

Origin of values: paper PMC13016609
